- TARGET_OF_ASSAY: furin, P09958;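 further: purified furin at 1:10 enzyme:substrate in 50 mM HEPES pH 7.5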
- Sequence (P09958 whole entry): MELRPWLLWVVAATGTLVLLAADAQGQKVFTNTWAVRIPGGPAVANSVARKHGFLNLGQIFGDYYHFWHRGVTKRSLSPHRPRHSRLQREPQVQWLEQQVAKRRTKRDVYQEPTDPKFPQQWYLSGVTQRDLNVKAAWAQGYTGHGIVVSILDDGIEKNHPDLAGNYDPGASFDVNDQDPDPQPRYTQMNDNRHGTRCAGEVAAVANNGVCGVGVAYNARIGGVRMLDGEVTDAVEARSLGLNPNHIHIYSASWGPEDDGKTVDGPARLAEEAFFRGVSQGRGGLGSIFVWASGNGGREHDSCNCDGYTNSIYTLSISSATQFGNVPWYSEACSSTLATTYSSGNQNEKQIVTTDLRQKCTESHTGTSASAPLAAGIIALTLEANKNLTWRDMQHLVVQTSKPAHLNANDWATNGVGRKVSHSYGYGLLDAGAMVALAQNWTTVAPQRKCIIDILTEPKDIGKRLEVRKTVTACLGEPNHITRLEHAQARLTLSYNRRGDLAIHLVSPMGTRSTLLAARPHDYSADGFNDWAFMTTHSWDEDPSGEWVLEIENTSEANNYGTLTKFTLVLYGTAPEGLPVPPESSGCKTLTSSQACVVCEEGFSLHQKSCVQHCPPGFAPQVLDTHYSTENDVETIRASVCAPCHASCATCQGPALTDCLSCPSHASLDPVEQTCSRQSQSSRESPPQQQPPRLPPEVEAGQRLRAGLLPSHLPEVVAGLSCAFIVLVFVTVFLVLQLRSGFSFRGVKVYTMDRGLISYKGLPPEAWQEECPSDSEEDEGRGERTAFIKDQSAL
- ASSAY_PROCEDURE: furin cleavage Z-score vs untreated control; higher = more cleavage, active = 3.5 or more, inactive = 1 or less, 8 variable residues between constant flanks
- SETUP_CONDITIONS: 30 min
The list shows a part of the results. The true hit rate is not given.
Output true for furin cleavage Z-score not less than 3; output false otherwise.

Some solved entries appear below for comparison.
>>> print(df.to_string())
                 query_sequence  class_name
0   CAEWLRKKRIAGNASASA [FS-418]       false
1   CAIQSRRKKIAGNASASA [FS-443]       false
2  CAADHRFYRYAGNASASA [FS-1507]       false
3  CARKYRSNKGAGNASASA [FS-2703]       false
4  CARKARFIHDAGNASASA [FS-2421]        true
5  CAAKSRQRRQAGNASASA [FS-1583]        true
6   CACTANHDSPAGNASASA [HC1268]       false
7  CARKYRSHHDAGNASASA [FS-2428]        true

Now, please, on to the next sequence.
Could you verify whether the entry CAKKRRKKRIAGNASASA [FS-936] shows furin cleavage Z-score of no less than 3?
true
